SYSTEM: human sweet receptor (T1R2 and T1R3) (Homo sapiens, UniProt Q7RTX0+Q8TE23)
Construct: expressed in transfected cells; host or cells: HEK293 cells co-expressing Galpha15
Sequence (Q8TE23 20-839): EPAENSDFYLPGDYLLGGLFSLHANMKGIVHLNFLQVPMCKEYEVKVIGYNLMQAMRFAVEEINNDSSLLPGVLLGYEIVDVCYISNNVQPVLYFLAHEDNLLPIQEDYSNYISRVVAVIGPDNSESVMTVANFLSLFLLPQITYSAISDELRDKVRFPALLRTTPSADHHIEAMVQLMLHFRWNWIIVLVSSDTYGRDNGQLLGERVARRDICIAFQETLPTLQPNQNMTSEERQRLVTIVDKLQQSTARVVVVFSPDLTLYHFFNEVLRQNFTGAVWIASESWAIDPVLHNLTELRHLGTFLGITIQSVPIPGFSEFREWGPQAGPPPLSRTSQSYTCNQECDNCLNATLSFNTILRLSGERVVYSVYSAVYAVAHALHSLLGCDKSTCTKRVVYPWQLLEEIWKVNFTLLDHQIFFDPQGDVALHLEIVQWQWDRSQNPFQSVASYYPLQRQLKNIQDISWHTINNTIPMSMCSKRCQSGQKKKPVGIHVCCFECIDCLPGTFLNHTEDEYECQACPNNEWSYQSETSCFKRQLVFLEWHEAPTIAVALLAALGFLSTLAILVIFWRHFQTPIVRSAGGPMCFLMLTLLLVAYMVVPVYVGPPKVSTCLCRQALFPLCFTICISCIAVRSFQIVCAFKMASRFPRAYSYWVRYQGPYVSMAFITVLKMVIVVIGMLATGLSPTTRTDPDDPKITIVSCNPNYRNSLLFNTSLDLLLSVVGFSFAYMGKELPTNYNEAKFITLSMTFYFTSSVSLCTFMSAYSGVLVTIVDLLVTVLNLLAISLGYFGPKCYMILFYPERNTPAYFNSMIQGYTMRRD
Sequence (Q7RTX0 21-852): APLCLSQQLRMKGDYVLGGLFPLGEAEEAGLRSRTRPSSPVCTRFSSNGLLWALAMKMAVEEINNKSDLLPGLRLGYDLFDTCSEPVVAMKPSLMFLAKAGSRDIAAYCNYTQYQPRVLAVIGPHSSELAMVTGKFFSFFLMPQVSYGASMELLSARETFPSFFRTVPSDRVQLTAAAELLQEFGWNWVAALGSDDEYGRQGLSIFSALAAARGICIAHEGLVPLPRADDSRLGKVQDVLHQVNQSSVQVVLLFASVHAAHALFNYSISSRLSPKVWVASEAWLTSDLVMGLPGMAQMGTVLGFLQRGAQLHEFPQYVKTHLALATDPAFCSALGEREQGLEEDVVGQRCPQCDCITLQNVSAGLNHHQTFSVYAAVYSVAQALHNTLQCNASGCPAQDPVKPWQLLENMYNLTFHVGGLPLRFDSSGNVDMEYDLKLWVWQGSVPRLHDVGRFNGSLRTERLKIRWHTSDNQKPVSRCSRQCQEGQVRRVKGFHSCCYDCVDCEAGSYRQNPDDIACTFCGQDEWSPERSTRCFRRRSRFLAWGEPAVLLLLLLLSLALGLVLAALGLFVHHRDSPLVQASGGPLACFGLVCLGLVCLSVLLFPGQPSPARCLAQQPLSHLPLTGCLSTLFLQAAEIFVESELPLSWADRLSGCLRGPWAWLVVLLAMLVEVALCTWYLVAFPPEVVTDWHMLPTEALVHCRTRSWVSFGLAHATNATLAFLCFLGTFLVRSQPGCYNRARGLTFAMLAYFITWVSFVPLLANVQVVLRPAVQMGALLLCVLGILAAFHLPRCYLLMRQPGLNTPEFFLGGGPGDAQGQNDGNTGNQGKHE
ASSAY DETAILS: Calcium imaging (Fluo3AM/FLIPR) sweet receptor enhancer assay in hT1R2/hT1R3-HEK293 Galpha15 cells, with pre-incubation step
Format: cell-based
MEASUREMENT CONTEXT: cells pre-incubated with S2423 (50 uM or 25 uM final); read-out: potency of Sucralose (dose-response)
METRIC NAME: pEC50
Field pEC50 (float): negative decimal logarithm of the concentration in molar.

Can you look up the measured pEC50 of "OC[C@H]1O[C@H](O[C@]2(CCl)O[C@H](CCl)[C@@H](O)[C@@H]2O)[C@H](O)[C@@H](O)[C@H]1Cl" for me? 4.96

---

SYSTEM: human sweet receptor (T1R2 and T1R3) (Homo sapiens, UniProt Q7RTX0+Q8TE23)
Construct: expressed in transfected cells; host or cells: HEK293 cells co-expressing Galpha15
ASSAY DETAILS: Calcium imaging (Fluo3AM/FLIPR) sweet receptor enhancer assay in hT1R2/hT1R3-HEK293 Galpha15 cells, with pre-incubation step
Format: cell-based
MEASUREMENT CONTEXT: without S2423; read-out: potency of Sucralose (dose-response)
METRIC NAME: pEC50
Field pEC50 (float): negative decimal logarithm of the concentration in molar.

Can you look up the measured pEC50 of OC[C@H]1O[C@H](O[C@]2(CCl)O[C@H](CCl)[C@@H](O)[C@@H]2O)[C@H](O)[C@@H](O)[C@H]1Cl [Sucralose] for me? 4.28

Reference source for all entries: patent US20080305500A1
